- Target entity: UniProt O70577
- Sequence (O70577 whole entry): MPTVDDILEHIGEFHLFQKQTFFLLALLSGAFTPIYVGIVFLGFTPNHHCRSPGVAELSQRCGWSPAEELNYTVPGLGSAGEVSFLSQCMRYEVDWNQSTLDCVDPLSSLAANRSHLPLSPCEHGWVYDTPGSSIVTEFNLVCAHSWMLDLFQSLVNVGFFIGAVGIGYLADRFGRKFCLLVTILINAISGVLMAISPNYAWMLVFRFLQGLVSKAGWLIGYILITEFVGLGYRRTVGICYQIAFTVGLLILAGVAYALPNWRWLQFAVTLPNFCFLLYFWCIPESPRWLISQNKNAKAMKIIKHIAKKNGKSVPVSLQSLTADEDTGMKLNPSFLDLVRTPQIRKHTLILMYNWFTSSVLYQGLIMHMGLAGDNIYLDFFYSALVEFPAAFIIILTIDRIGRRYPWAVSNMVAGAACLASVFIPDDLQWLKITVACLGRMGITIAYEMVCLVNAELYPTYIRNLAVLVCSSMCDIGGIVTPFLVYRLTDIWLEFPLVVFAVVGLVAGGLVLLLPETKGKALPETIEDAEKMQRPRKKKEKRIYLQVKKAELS
- Method description: Inhibition of mOct2-mediated 14C-metformin uptake in transfected HEK293 cells
- Format: cell-based
- Parameters: expressed in transfected cells; host or cells: HEK293 (stably transfected)
- Experimental setup: HEK293; read-out: Inhibitory Effects (%) mOct2 100 µM Mean

Compound: CC(=O)N1CCN(c2ccc(OCC3COC(Cn4ccnc4)(c4ccc(Cl)cc4Cl)O3)cc2)CC1 (stereo not drawn)
inhibition at 100 µM (%): 87
//
Compound: COC(=O)[C@H]1[C@H]2C[C@@H]3c4[nH]c5cc(OC)ccc5c4CCN3C[C@H]2C[C@@H](OC(=O)c2cc(OC)c(OC)c(OC)c2)[C@@H]1OC
inhibition at 100 µM (%): -19
//
Compound: CC(C)c1nc(CN(C)C(=O)N[C@H](C(=O)N[C@@H](Cc2ccccc2)C[C@H](O)[C@H](Cc2ccccc2)NC(=O)OCc2cncs2)C(C)C)cs1
inhibition at 100 µM (%): -8
//
Compound: CCCOC(=O)NCCCN(C)C
inhibition at 100 µM (%): 48
//
Compound: COc1cc2c(cc1OC)CN(CCc1ccc(NC(=O)c3cccc4c(=O)c5cccc(OC)c5[nH]c34)cc1)CC2
inhibition at 100 µM (%): 81
//
Compound: CNC(=C[N+](=O)[O-])NCCSCc1ccc(CN(C)C)o1
inhibition at 100 µM (%): -16

Origin of values: paper PMC9780857
